biological target: Torsin-1A-interacting protein 2 (Homo sapiens) (UniProt Q8NFQ8); test: LULL1 binders on small-molecule microarray, primary screen, cell lysate, human LULL1 lysate, 635/667 nm fluorescence (AID 1092); conditions: hLULL1 lysate binding, 635 nm fluorescence, higher = more signal;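 further: probe is lysate of COS7 cells overexpressing human LULL1; score merges per-feature 667 nm fluorescence with signal-to-noise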
Sequence (Q8NFQ8 whole entry, looked up): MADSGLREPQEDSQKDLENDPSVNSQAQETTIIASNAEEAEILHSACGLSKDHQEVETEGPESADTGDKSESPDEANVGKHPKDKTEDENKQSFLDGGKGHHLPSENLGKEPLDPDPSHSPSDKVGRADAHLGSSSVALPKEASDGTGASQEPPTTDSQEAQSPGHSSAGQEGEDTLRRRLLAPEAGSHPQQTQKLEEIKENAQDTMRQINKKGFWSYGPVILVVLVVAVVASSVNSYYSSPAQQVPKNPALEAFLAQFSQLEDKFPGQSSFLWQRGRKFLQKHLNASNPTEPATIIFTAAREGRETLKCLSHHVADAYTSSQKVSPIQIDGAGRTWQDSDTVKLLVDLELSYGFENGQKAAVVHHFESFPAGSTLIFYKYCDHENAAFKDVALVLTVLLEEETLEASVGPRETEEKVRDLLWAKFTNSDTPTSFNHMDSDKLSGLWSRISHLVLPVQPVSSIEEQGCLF
The label depends only on composite z-score: criterion met if it is at least 3, criterion not met if it is smaller.

Completed entries (count: 10):
[
  {
    "molecule": "CC(C)C(O)C1C=CC2C(=O)N(c3ccccc3)C(=O)C2N1Nc1ccc(C#N)cc1 (configuration not stated)",
    "assigned.category": "criterion met"
  },
  {
    "molecule": "C=C[C@H](C)[C@@H](O)c1ccc(O)c2ccccc12",
    "assigned.category": "criterion not met"
  },
  {
    "molecule": "COC(=O)[C@@]1(Cc2ccc(F)cc2)[C@H]2c3cc(C(=O)N4CCCC4)n(Cc4cccc5ccccc45)c3C[C@H]2CN1C(=O)c1ccccc1",
    "assigned.category": "criterion met"
  },
  {
    "molecule": "COc1ccc(NN2C(C(O)c3ccc(OC)c(OCc4ccccc4)c3)C=CC3C(=O)N(C4CCCCC4)C(=O)C32)cc1 (configuration not stated)",
    "assigned.category": "criterion met"
  },
  {
    "molecule": "NCCCCCNC(=O)[C@H]1C[C@H]2C(=O)NCC(=O)N2[C@H]1c1cccc(OCCO)c1",
    "assigned.category": "criterion not met"
  },
  {
    "molecule": "COCC(=C=CC[C@H](O)c1ccc(OCCO)cc1)C[C@H](O)c1cc(Cl)cc(Cl)c1O",
    "assigned.category": "criterion not met"
  },
  {
    "molecule": "CCCCC=C[C@@H](NC(=O)c1ccc(C(=O)OC)cc1)c1ccccc1",
    "assigned.category": "criterion not met"
  },
  {
    "molecule": "COc1ccc(C(O)C2C=CC3C(=O)N(C)C(=O)C3N2Nc2ccccc2)cc1OCc1ccccc1 (configuration not stated)",
    "assigned.category": "criterion met"
  },
  {
    "molecule": "CCOC(=O)C[C@H]1[C@H](OC(=O)Cc2ccc3c(c2)OCO3)[C@@H](NC(=O)c2ccc(-c3ccccc3)cc2)c2cc(OCCCO)ccc2N1C(=O)c1ccccc1",
    "assigned.category": "criterion not met"
  },
  {
    "molecule": "O=C(O)[C@H]1C[C@H]2C(=O)NCC(=O)N2[C@H]1c1ccc(O)cc1",
    "assigned.category": "criterion not met"
  }
]

Query block: Exam item: decide whether the reported composite z-score for "COCC1=C2[C@@H](CCc3ccccc3)OB(O)C[C@@H]2[C@@H]2C(=O)N(Cc3ccccc3)C(=O)[C@@H]2C1" is at least 3.
Result block: criterion not met

Query block: Exam item: decide whether the reported composite z-score for "COC(=O)[C@@]1(Cc2ccccc2N=[N+]=[N-])COC(c2ccc(OCCCO)cc2)=N1" is at least 3.
Result block: criterion not met

Query block: Exam item: decide whether the reported composite z-score for "NC(=O)NCC#Cc1ccc2c(c1)[C@]1(C(=O)N2)[C@H](C(=O)NC[C@H](O)c2ccccc2)[C@H]2C(=O)O[C@H](c3ccccc3)[C@H](c3ccccc3)N2[C@@H]1c1ccc(O)cc1" is at least 3.
Result block: criterion not met

Query block: Exam item: decide whether the reported composite z-score for N#Cc1ccc(NN2C(C(O)c3ccc([N+](=O)[O-])cc3)C=CC3C(=O)N(c4ccccc4)C(=O)C32)cc1 (configuration not stated) is at least 3.
Result block: criterion met

Query block: Exam item: decide whether the reported composite z-score for CC(C)OC(=O)CC(=O)CC(O)c1ccc(C#N)cc1 (configuration not stated) is at least 3.
Result block: criterion not met

Query block: Exam item: decide whether the reported composite z-score for "COc1c(C)cc(-c2cc3c(c(-c4ccc(Oc5ccccc5)cc4)n2)[Si](C(C)C)(C(C)C)OC3)cc1C" is at least 3.
Result block: criterion not met

Where do the numbers come from? From PubChem BioAssay.
